meta.source: paper PMC9482650

target: MAGI1_3, Q96QZ7; assay: holdup assay; set-up: key: below the threshold = too weak to quantify, mostly under pKd 3.1 to 4; conditions: plain residues with an end cap or a label only (N-terminal biotin on a linker: ttds)
Sequence (Q96QZ7 638-725): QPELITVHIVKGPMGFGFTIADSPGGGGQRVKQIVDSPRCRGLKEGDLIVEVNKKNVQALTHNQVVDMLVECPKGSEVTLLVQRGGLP
List of pKd values.

# binder, pKd
data = [
    ("RHTTSTETAV [HPV30-E6, P36809]", 4.72),
    ("SSLQSLETSV [ATP2B4, P23634]", 4.44),
    ("QRQARSETLV [HPV59-E6, Q81964]", 5.25),
    ("SKPTRRETEV [HPV35-E6, P27228]", 4.09),
    ("RLPKIKETTV [FRMPD4, Q14CM0]", 4.82),
]
